Hey, just so you know, these numbers are from ChEMBL document CHEMBL2321730.

Target Of Assay: Kappa-type opioid receptor (Homo sapiens, UniProt P41145)
Sequence (P41145 whole entry): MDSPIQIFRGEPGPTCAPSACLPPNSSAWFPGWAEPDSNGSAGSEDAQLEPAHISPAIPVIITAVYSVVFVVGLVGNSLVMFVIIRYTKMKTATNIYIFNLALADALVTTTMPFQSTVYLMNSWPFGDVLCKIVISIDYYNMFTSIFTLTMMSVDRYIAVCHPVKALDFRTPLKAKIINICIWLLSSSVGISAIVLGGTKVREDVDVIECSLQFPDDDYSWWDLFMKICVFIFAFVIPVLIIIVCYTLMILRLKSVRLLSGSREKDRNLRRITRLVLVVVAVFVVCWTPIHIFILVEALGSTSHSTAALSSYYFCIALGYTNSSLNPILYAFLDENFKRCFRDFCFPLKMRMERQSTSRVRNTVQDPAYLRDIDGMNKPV
Result Type: pIC50
One number for each entry, as −log10 of the molar value.

Form field: reported pIC50 of "O=C(Nc1cccc(NC(=O)c2cccc(N3CCCCC3)c2)c1)c1cccc(OC2CCN(CC3CC3)CC2)c1"
7.11
